- assay-setup: in isopropanol, 313.15 K
measured-quantity: solubility (mole fraction)
Answer field: number only, no words.

Query: solubility (mole fraction); subject: C[C@H](N)C(=O)O
0.00019

----------
- assay-setup: in methanol, 283.15 K
measured-quantity: solubility (mole fraction)
Answer field: number only, no words.

Query: solubility (mole fraction); subject: C[C@H](N)C(=O)O
0.000407

----------
- assay-setup: in acetonitrile, 323.15 K
measured-quantity: solubility (mole fraction)
Answer field: number only, no words.

Query: solubility (mole fraction); subject: C[C@H](N)C(=O)O
0.000209

----------
- assay-setup: in isopropanol, 303.15 K
measured-quantity: solubility (mole fraction)
Answer field: number only, no words.

Query: solubility (mole fraction); subject: C[C@H](N)C(=O)O
0.000174

----------
- assay-setup: in acetonitrile, 313.15 K
measured-quantity: solubility (mole fraction)
Answer field: number only, no words.

Query: solubility (mole fraction); subject: C[C@H](N)C(=O)O
0.000178

----------
- assay-setup: in methanol, 303.15 K
measured-quantity: solubility (mole fraction)
Answer field: number only, no words.

Query: solubility (mole fraction); subject: C[C@H](N)C(=O)O
0.00049

----------
- assay-setup: in ethanol, 283.15 K
measured-quantity: solubility (mole fraction)
Answer field: number only, no words.

Query: solubility (mole fraction); subject: C[C@H](N)C(=O)O
0.000193

----------
- assay-setup: in n-propanol, 283.15 K
measured-quantity: solubility (mole fraction)
Answer field: number only, no words.

Query: solubility (mole fraction); subject: C[C@H](N)C(=O)O
0.000122

----------
- assay-setup: in n-pentanol, 283.15 K
measured-quantity: solubility (mole fraction)

Query: solubility (mole fraction); subject: C[C@H](N)C(=O)O
0.000216

----------
- assay-setup: in water, 323.15 K
measured-quantity: solubility (mole fraction)
Answer field: number only, no words.

Query: solubility (mole fraction); subject: C[C@H](N)C(=O)O
0.042

----------
- assay-setup: in isopropanol, 323.15 K
measured-quantity: solubility (mole fraction)

Query: solubility (mole fraction); subject: C[C@H](N)C(=O)O
0.000245

----------
- assay-setup: in n-butanol, 283.15 K
measured-quantity: solubility (mole fraction)
Answer field: number only, no words.

Query: solubility (mole fraction); subject: C[C@H](N)C(=O)O
0.000414

----------
- assay-setup: in isobutanol, 293.15 K
measured-quantity: solubility (mole fraction)
Answer field: number only, no words.

Query: solubility (mole fraction); subject: C[C@H](N)C(=O)O
0.000314

----------
- assay-setup: in acetonitrile, 293.15 K
measured-quantity: solubility (mole fraction)
Answer field: number only, no words.

Query: solubility (mole fraction); subject: C[C@H](N)C(=O)O
0.000121

----------
- assay-setup: in n-pentanol, 323.15 K
measured-quantity: solubility (mole fraction)
Answer field: number only, no words.

Query: solubility (mole fraction); subject: C[C@H](N)C(=O)O
0.000465

----------
- assay-setup: in water, 293.15 K
measured-quantity: solubility (mole fraction)
Answer field: number only, no words.

Query: solubility (mole fraction); subject: C[C@H](N)C(=O)O
0.0308

----------
- assay-setup: in ethyl acetate, 313.15 K
measured-quantity: solubility (mole fraction)
Answer field: number only, no words.

Query: solubility (mole fraction); subject: C[C@H](N)C(=O)O
0.00018
